IC50 values for the compounds below.
target: Adrenergic receptor beta (Rattus norvegicus, UniProt P18090+P10608+P26255); test: Beta-adrenergic agonistic activity in rat uterus preincubated with phenoxybenzamine (12 uM) for 30 min; format: functional, tissue-based
// note: answer is a bare numeric in nM

input: Given CCOC(=O)COc1ccc2c(c1)C[C@@H](NC[C@H](O)c1cccc(Cl)c1)CC2.Cl (mixture of isomers) [AMIBEGRON HYDROCHLORIDE] , state its recorded IC50.
output: 1200

Now for a further compound.
input: Given CCOC(=O)c1ccc2c(c1)CC(NCC(O)c1cccc(Cl)c1)CC2.Cl (stereo unspecified) , state its recorded IC50.
output: 185
